Test system: UACC-62 melanoma
Test: NCI tumour cell line growth inhibition, 48 h; in the data active = GI50 below about 0.43 µM; inactive = the rest
Answer with one of the outcomes given here: t = active, f = inactive

>  <Compound>
CC(C)C[C@H](NC(=O)[C@@H](N)Cc1cccc2ccccc12)B(O)O

>  <Label>
t

$$$$

Which outcome was entered for the compound O=C(/C=C/c1cccc(Cl)c1)c1ccccc1 in this test?
f

Field entry: O=C(NCCc1nccs1)c1cnc2c(S)cccc2c1
f

Field entry: COc1cc2c(cc1OCCCN1CCN(CCCOc3cc4c(cc3OC)C(=O)N3C[C@H](F)C[C@H]3C=N4)CC1)N=C[C@@H]1C[C@@H](F)CN1C2=O
t

Field entry: O=[N+]([O-])c1cc2c(ccc3ccccc32)o1
t

Field entry: CC[C@@]1(O)C(=O)OCc2c1cc1n(c2=O)Cc2cc3c(N)c(OC)ccc3nc2-1
t

Field entry: COc1ccc(C(=O)c2no[n+]([O-])c2C(=O)c2ccc(OC)cc2)cc1
f

Field entry: O=C(Nc1cccc2[nH]c(C(F)(F)F)nc12)c1ccc(Br)cc1F
f

---

Test system: NCI-H522 lung
Assay: NCI tumour cell line growth inhibition, 48 h; in the data active means GI50 below about 0.43 µM; inactive means the rest
Answer with one of the outcomes given here: active, inactive

>  <Compound>
Cc1nc2ccccc2c(/C=C/c2ccc(F)cc2)c1C(=O)/C=C/c1ccccc1

>  <Label>
inactive

$$$$

Which outcome was entered for the compound CC[C@@]1(O)C(=O)OCc2c1cc1n(c2=O)Cc2cc3c(N)c(OC)ccc3nc2-1 in this test?
active

Field entry: COc1cc2c(cc1OCCCN1CCN(CCCOc3cc4c(cc3OC)C(=O)N3C[C@H](F)C[C@H]3C=N4)CC1)N=C[C@@H]1C[C@@H](F)CN1C2=O
active

Field entry: C=CCn1c(C)nc2cc(Nc3nc(N4CCCC4)nc4nc[nH]c34)ccc21
inactive

Field entry: O=C1/C(=C/c2ccc([N+](=O)[O-])s2)Oc2ccc(Br)cc21
active

---

System: U251 CNS
Test: NCI tumour cell line growth inhibition, 48 h
Measured endpoint: TGI

Before answering, review these 4 worked examples.
>  <Compound>
COc1cccc(/C=C2\COc3ccc(O)c(O)c3C2=O)c1OC

>  <Value reported>
10.5 µM

$$$$
>  <Compound>
c1ccc([P+](Cc2ccc(C[P+](c3ccccc3)(c3ccccc3)c3ccccc3)s2)(c2ccccc2)c2ccccc2)cc1

>  <Value reported>
> 100 µM

$$$$
>  <Compound>
O=C1Nc2ccccc2C1(O)Cc1ccccn1 (stereo not given)

>  <Value reported>
> 100 µM

$$$$
>  <Compound>
CCCCCCCCCCCC(=O)OCC(O)CO (stereo not given)

>  <Value reported>
> 100 µM

$$$$

// next entry
Fill in: TGI of N#Cc1ccccc1NC(=O)C(O)C(O)C(O)C(O)C=O (stereo not given) is ___
> 100 µM

---

System: XF 498 CNS
Test: NCI tumour cell line growth inhibition, 48 h
Measured endpoint: TGI

Before answering, review these 5 worked examples.
>  <Molecule>
Cc1ccccc1-c1cc(=O)c2cc(C)c(C)c(C(=O)O)c2o1

>  <TGI>
> 100 µM

$$$$
>  <Molecule>
CC1(C)CCOC(Sc2ccccc2)C1 (stereo unspecified)

>  <TGI>
> 100 µM

$$$$
>  <Molecule>
O=C(OCc1ccccc1)N1N=NC2C3CC(OCc4ccccc4)(OCc4ccccc4)C(O3)C21 (stereo unspecified)

>  <TGI>
53.4 µM

$$$$
>  <Molecule>
O=C(CC(=O)n1nc(-c2ccccc2)c(N=Nc2ccc([N+](=O)[O-])cc2)c1-c1ccccc1)Nc1ccc(Cl)cc1

>  <TGI>
59.1 µM

$$$$
>  <Molecule>
CC1=CC2=C(C=O)C(=O)[C@](C)(O)[C@@H](O)C2=CO1

>  <TGI>
> 100 µM

$$$$

// next entry
Any idea what TGI came out for Cc1nsc2cc(Cl)n(C)c(=O)c12 on XF 498 CNS?
> 100 µM
